assay-explanation: rat PK model of intravenous administration
Type: in vivo
condition-parameters: in vivo, intravenous, 10 mg/kg, read-out: exposure (AUC)
I'd appreciate it if you could supply AUC values for the items below.

Cl.NCC1OB2OCCOc3cccc1c32 (centres unmarked) [compound 24, reference compound]; ~5300 ng·h/mL

Could you now consider this next compound?
Problem: Can you share its AUC? I mean this compound: Cl.NC[C@H]1OB2O[C@H](CO)COc3cccc1c32
Result: ~14100 ng·h/mL

====

assay-explanation: rat PK model of intravenous administration
Assay type: in vivo
condition-parameters: in vivo, iv, 10 mg/kg
outcome-measure: AUC

Problem: Can you share its AUC? I mean this compound: Cl.NC[C@H]1OB(O)c2c(OCCCO)cccc21 [compound 25, reference compound]
Result: ~6240 ng·h/mL
